Values from PubChem BioAssay AID2060493

System: 616215-338-R-J1-PDC tumor spheroids, viability
Assay: Anticancer human tumor 616215-338-R-J1-PDC patient-derived colon adenocarcinoma cell line growth inhibition [GQUAD]; active means viability on the fitted dose curve at most 10% of control; inactive means the rest
Settings: second compound 10 µM; first compound 0.316 µM; spheroids with HUVEC and MSC
Classes used: y = active, n = inactive

compound="O=C(NO)c1cnc(N2CCN(S(=O)(=O)c3ccc4ccccc4c3)CC2)nc1 + CN(C)c1ccc(Nc2c3ccc(NC(=O)CCN4CCCC4)cc3nc3cc(NC(=O)CCN4CCCC4)ccc23)cc1" group_label=n
compound="C=CCn1c(=O)c2cnc(Nc3ccc(N4CCN(C)CC4)cc3)nc2n1-c1cccc(C(C)(C)O)n1 + Cc1cnc(CNC(=O)c2c(=O)c3ccc(N4CCCN(C)CC4)nc3n3c2sc2ccccc23)cn1" group_label=n
compound="CCc1c2c(nc3ccc(O)cc13)-c1cc3c(c(=O)n1C2)COC(=O)[C@]3(O)CC + Cc1[nH]c2ccc(F)cc2c1-c1nc2c3cccnc3c3ncccc3c2[nH]1" group_label=n
compound="CC1COCCN1c1cc(-c2ccnn2C)c2ccnc(-c3ccn[nH]3)c2n1 (stereo unspecified) + Cc1[nH]c2ccc(F)cc2c1-c1nc2c3cccnc3c3ncccc3c2[nH]1" group_label=n
compound="CC1COCCN1c1cc(-c2ccnn2C)c2ccnc(-c3ccn[nH]3)c2n1 (stereo unspecified) + CN(C)c1ccc(Nc2c3ccc(NC(=O)CCN4CCCC4)cc3nc3cc(NC(=O)CCN4CCCC4)ccc23)cc1" group_label=n
compound="C=CC(=O)N1CCN(c2nc(=O)n(-c3c(C)ccnc3C(C)C)c3nc(-c4c(O)cccc4F)c(F)cc23)C(C)C1 (stereo unspecified) + Cc1cnc(CNC(=O)c2c(=O)c3ccc(N4CCCN(C)CC4)nc3n3c2sc2ccccc23)cn1" group_label=n
compound="Nc1ccn(C2OC(CO)C(O)C2(F)F)c(=O)n1 (stereo unspecified) + Cc1cnc(CNC(=O)c2c(=O)c3ccc(N4CCCN(C)CC4)nc3n3c2sc2ccccc23)cn1" group_label=n
compound="Nc1ccn(C2OC(CO)C(O)C2(F)F)c(=O)n1 (stereo unspecified) + CN(C)c1ccc(Nc2c3ccc(NC(=O)CCN4CCCC4)cc3nc3cc(NC(=O)CCN4CCCC4)ccc23)cc1" group_label=n
compound="COc1ccc([C@@H](O)c2cc(-c3ncnc4cc(N5CCOCC5)ccc34)c(F)cc2Cl)nn1 + CN(C)c1ccc(Nc2c3ccc(NC(=O)CCN4CCCC4)cc3nc3cc(NC(=O)CCN4CCCC4)ccc23)cc1" group_label=n
compound="Cc1[nH]c2ccccc2c1CCNCc1ccc(/C=C/C(=O)NO)cc1 + CN(C)c1ccc(Nc2c3ccc(NC(=O)CCN4CCCC4)cc3nc3cc(NC(=O)CCN4CCCC4)ccc23)cc1" group_label=y
compound="CC(=O)O[C@H]1C(=O)[C@@]2(C)[C@H]([C@H](OC(=O)c3ccccc3)[C@]3(O)C[C@H](OC(=O)[C@H](O)[C@@H](NC(=O)c4ccccc4)c4ccccc4)C(C)=C1C3(C)C)[C@]1(OC(C)=O)CO[C@@H]1C[C@@H]2O + CN(C)c1ccc(Nc2c3ccc(NC(=O)CCN4CCCC4)cc3nc3cc(NC(=O)CCN4CCCC4)ccc23)cc1" group_label=n

====

System: 616215-338-R-J1-PDC tumor spheroids, viability
Experiment: Anticancer human tumor 616215-338-R-J1-PDC cell line growth inhibition [GQUAD];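 further: spheroids exposed to agents for 7 days before readout; percent viability relative to DMSO vehicle control wells taken as 100%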
Settings: second compound 10 µM; first compound 3.16 µM; stronger effect = lower value; spheroids with HUVEC and MSC
endpoint: viability, T/C (%)

compound="O=c1[nH]cc(F)c(=O)[nH]1 + Cc1cnc(CNC(=O)c2c(=O)c3ccc(N4CCCN(C)CC4)nc3n3c2sc2ccccc23)cn1" output_unit=% measurement=25.6
compound="COc1ncnc(C2CC2)c1-c1ncc2cnn(Cc3ccc(-c4nc(C(F)(F)F)cn4C(C)C)cc3)c2n1 + CN(C)c1ccc(Nc2c3ccc(NC(=O)CCN4CCCC4)cc3nc3cc(NC(=O)CCN4CCCC4)ccc23)cc1" output_unit=% measurement=86.2
compound="COc1cccc2c1C(=O)c1c(O)c3c(c(O)c1C2=O)CC(O)(C(=O)CO)CC3OC1CC(N)C(O)C(C)O1 (stereo not given) + Cc1cnc(CNC(=O)c2c(=O)c3ccc(N4CCCN(C)CC4)nc3n3c2sc2ccccc23)cn1" output_unit=% measurement=3.24
compound="CC(=O)O[C@H]1C(=O)[C@@]2(C)[C@H]([C@H](OC(=O)c3ccccc3)[C@]3(O)C[C@H](OC(=O)[C@H](O)[C@@H](NC(=O)c4ccccc4)c4ccccc4)C(C)=C1C3(C)C)[C@]1(OC(C)=O)CO[C@@H]1C[C@@H]2O + CN(C)c1ccc(Nc2c3ccc(NC(=O)CCN4CCCC4)cc3nc3cc(NC(=O)CCN4CCCC4)ccc23)cc1" output_unit=% measurement=9.14
compound="Nc1ccn(C2OC(CO)C(O)C2(F)F)c(=O)n1 (stereo not given) + Cc1[nH]c2ccc(F)cc2c1-c1nc2c3cccnc3c3ncccc3c2[nH]1" output_unit=% measurement=13.8
